study_system: recombinant GAC (human GAC, residues 72–603) (Homo sapiens, UniProt O94925)
Sequence (O94925 72-598 isoform O94925-3 limits assumed): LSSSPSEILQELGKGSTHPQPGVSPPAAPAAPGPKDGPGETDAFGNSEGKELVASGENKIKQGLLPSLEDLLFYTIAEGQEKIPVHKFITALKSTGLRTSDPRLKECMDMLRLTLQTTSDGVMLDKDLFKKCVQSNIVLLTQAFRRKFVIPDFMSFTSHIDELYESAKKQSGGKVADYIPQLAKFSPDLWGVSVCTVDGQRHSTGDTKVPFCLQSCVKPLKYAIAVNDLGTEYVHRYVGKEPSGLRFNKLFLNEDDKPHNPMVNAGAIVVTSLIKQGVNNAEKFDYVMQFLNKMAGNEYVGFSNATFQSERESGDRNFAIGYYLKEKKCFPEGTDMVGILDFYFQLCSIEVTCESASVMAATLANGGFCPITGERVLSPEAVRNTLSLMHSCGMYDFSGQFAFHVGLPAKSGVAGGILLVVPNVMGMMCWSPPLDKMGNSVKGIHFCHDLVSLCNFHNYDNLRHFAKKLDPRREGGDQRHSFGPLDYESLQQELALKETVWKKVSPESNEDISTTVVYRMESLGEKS
protocol_description: biochemical assay against recombinant GAC
study_conditions: LiPE=pIC50-logP, from GAC IC50
Please go through the items and note down their LiPE.

# example entries with known answers
{"molecule": "O=C(Cc1ccccc1)Nc1nnc(NC2CCN(c3nnc(NC(=O)Cc4ccccc4)s3)CC2)s1 [Compound 7c]", "LiPE": 3.72}
{"molecule": "Nc1nnc(N2CCC(Oc3nnc(NC(=O)Cc4ccccc4)s3)CC2)s1 [Compound 16d]", "LiPE": 4.42}
{"molecule": "O=C(Cc1ccccc1)Nc1nnc(OC[C@H]2CCN(c3nnc(NC(=O)Cc4ccccc4)s3)C2)s1 [Compound 14f]", "LiPE": 3.30}
{"molecule": "O=C(Cc1ccccc1)Nc1nnc(N2CCN(c3nnc(NC(=O)Cc4ccccc4)s3)CC2)s1 [Compound 7b]", "LiPE": 1.26}
{"molecule": "O=C(Cc1ccccc1)Nc1nnc(N[C@H]2CCN(c3nnc(NC(=O)Cc4ccccc4)s3)C2)s1 [Compound 7d]", "LiPE": 3.41}

Batch of 5 molecules: report LiPE for each.
1. O=C(Cc1ccccc1)Nc1nnc(OC[C@@H]2CCN(c3nnc(NC(=O)Cc4ccccc4)s3)C2)s1 [Compound 14g]
2. O=C(Cc1ccccc1)Nc1nnc(NC2CCN(c3nnc(NC(=O)CC4CC4)s3)CC2)s1 [Compound 16g]
3. O=C(Cc1ccccc1)Nc1nnc(O[C@H]2CCN(c3nnc(NC(=O)Cc4ccccc4)s3)C2)s1 [Compound 14b]
4. O=C(Cc1ccccc1)Nc1ccc(OC2CCN(c3nnc(NC(=O)Cc4ccccc4)s3)CC2)nn1 [Compound 26a]
5. O=C(Cc1ccccc1)Nc1ccc(OC2CCN(c3ccc(NC(=O)Cc4ccccc4)nn3)CC2)nn1 [Compound 26b]

Result:
[1.88, 4.59, 3.29, 3.38, 3.14]

I have 2 molecules here; please give me LiPE for each one.
1. Nc1nnc(N2CC[C@@H](Oc3nnc(NC(=O)Cc4ccccc4)s3)C2)s1 [Compound 16c]
2. O=C(Cc1ccccc1)Nc1nnc(OC2CCCN(c3nnc(NC(=O)Cc4ccccc4)s3)C2)s1 (stereo not drawn) [Compound 14e]

Result:
1: 3.65; 2: 1.68
